These data points were gathered from PubChem BioAssay (NCATS).

Entries and their activity change, negative = inhibition values follow.
# procedure.details: NFAT Signaling Pathway (AID 444);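 also: carbachol stimulus at about its EC50 of 1 µM final; % is scaled to controls: 0 for no effect and ±100 for the full control effect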
# measurement.setup: Jurkat NFAT-bla M1, carbachol, beta-lactamase ratio, 5 h; at 17.2 µM (top of the series) unless noted
Records with an inconclusive call do not appear.
outcome.measure: activity change, negative = inhibition (%)

1) O=C1CC(C(=O)O)c2ccccc2N1 (centres undefined); -1.33
2) CCn1nc(NC(=O)c2cccnc2)c2cc3ccccc3nc21; 9.22
3) O=C(O)CCN(CCC(=O)O)c1nnc(SCc2ccccc2)s1; 12.2
4) Cn1c(SCC(=O)NCc2ccccc2)nc2ccccc21; 1.73
5) Cn1cc(Cl)nc1C(O)c1ccccc1 (centres undefined); -2.26
6) CCOP(=O)(c1ccccc1)C1(C#N)CCCC1 (centres undefined); 7.44
7) CC1(C(=O)CSc2nc3ccccc3s2)CCC(=O)O1 (centres undefined); 1.72
8) CCOc1ccc(-n2c(SCc3ccc(C#N)cc3)nnc2-c2cccnc2)cc1; 6.12
9) CCN(CC)CCCN1C(=O)C(=O)/C(=C(/O)c2ccc3c(c2)CC(C)O3)C1c1cccnc1 (centres undefined); 11.9
10) CCOC(=O)CNC(=O)CNC(=O)c1ccc(OCC(C)C)cc1; 8.09
11) COC(=O)[C@H]1CCCN1C(=O)Nc1cccc(Oc2c(F)c(F)c(F)c(F)c2F)c1; -9.08
12) COC(=O)CC(=O)Cc1nc(N)nc(Nc2ccc(C)c(C)c2)n1; -5.97
13) CCOC(=O)c1[nH]c2ccc(C)cc2c1N=CN(CC)CC; -21.2
14) CCNc1sc(C(=O)c2cccs2)c(N)c1C#N; 20.9
15) c1ccc(CN2CCN(c3nc(-c4ccccn4)nc4ccccc34)CC2)cc1; -29
16) CCCCOc1ccccc1/C=c1/sc2nc(-c3oc4ccccc4c3C)nn2c1=O; -23.5
17) Cc1sc(-n2c(C)ccc2C)c(C#N)c1C; -9.11
18) CCCCC1CC1C(=O)Nc1ccc(OC)c(OC)c1 (centres undefined); 3.38
19) C=CCN=C(NC#N)SCCc1ccccc1; 7.9
20) CCN(CC)CCN1C(=O)C(O)=C(C(=O)c2ccco2)C1c1ccccn1 (centres undefined); -0.0336
21) COc1ccccc1C1/C(=C(\O)c2ccc3c(c2)OCCO3)C(=O)C(=O)N1CCCN(C)C (centres undefined); -5.11
22) c1ccc(-c2nnc3n2N=C(c2ccc4c(c2)OCO4)CS3)nc1; 19.9
23) C=CCN(C(=O)CCC(=O)O)C1CC(=O)N(c2ccc(OC)cc2)C1=O (centres undefined); -8.7
24) CC1(C)CC(=O)C=C(NCc2ccncc2)C1; -8.43

* * *

# measurement.target: Cytochrome P450 1A2 (Homo sapiens)
# procedure.details: p450-cyp1a2 (AID 410)
# measurement.setup: recombinant CYP1A2, luciferin-ME demethylation, luminescence; series mostly up to 57 µM
Inconclusive results are not listed. Calls of active or inactive are those of the source. Calls follow the shape of the full dose curve.
Possible outcomes: class 1 (active), class 0 (inactive)

1) COC(=O)[C@@H]1C[C@H]1[C@@H](NC(=O)Oc1ccc(F)cc1)c1ccccc1; class 1
2) COc1ccc(NC(=O)/C=C\c2ccc(Cl)cc2)cc1; class 1
3) COC(=O)[C@@]1(Cc2ccc(F)cc2)[C@H]2c3cc(C(=O)N(C)C)n(C)c3C[C@H]2CN1C(=O)c1ccccc1; class 1
4) C=C1C(=O)O[C@H]2C[C@@]3(C)CCCC(=C)[C@@H]3C[C@H]12; class 1
5) CC1=CC(=O)CC(C)(C)[C@@]1(O)/C=C\C(C)=C\C(=O)O; class 0
6) CC(C)C[C@@H](CC(=O)N[C@@H](CCCN)CC(=O)N[C@@H]1CCCC[C@H]1C(=O)N[C@H](CC(=O)N[C@@H](CCC(=O)O)CC(=O)O)Cc1c[nH]c2ccccc12)NC(=O)[C@@H]1CNCC[C@H]1N; class 0
7) CCCC1(C(=O)OC)C=C2C(=C(c3ccccc3)C(=O)C2C)CN1 (stereo not drawn); class 1
8) C[C@@H](C(=O)Nc1ccc2ccccc2c1)[C@H]1C[C@]1(C)[C@H](NS(=O)(=O)c1ccc(-c2ccccc2)cc1)c1ccccc1; class 1

* * *

# Test system: W2
# procedure.details: qHTS profiling for inhibitors of Plasmodium falciparum proliferation (AID 504749); also: nearly all actives have a fitted effect of over 60% in size
# measurement.setup: P. falciparum in erythrocytes, SYBR Green DNA, 72 h; series mostly up to 28.7 µM
Results filed as inconclusive are left out. The source made the active and inactive calls. The call rests on the fitted dose curve; in most records, active means well fitted inhibition curve with a large enough effect; inconclusive means small, poorly fitted or top-dose-only effect; inactive means flat fitted curve, though single readings scatter.
Possible outcomes: YES = active, NO = inactive

1) Cc1cnc(NC(=O)C2C(=O)c3ccccc3S(=O)(=O)N2C)s1 (stereo unspecified); NO
2) C=C1[C@@H]2CC[C@H](C2)C1(C)C; NO
3) C[C@]12C=CC(=O)N[C@@H]1CC[C@@H]1C2CC[C@]2(C)C(C(=O)Nc3cc(C(F)(F)F)ccc3C(F)(F)F)CC[C@@H]12 (stereo partly specified); YES
4) CC(=O)CC(c1ccccc1)C1C(=O)Oc2ccccc2C1=O (stereo unspecified); NO
5) OCC(O)C(O)C(O)C(O)CO (stereo unspecified); NO
6) CC(C)C[C@@H](NC(=O)[C@@H](Cc1ccccc1)NC(=O)c1cnccn1)B(O)O; YES
7) CC(O)C1CCC2C3CCC4CC(O)CCC4(C)C3CCC12C (stereo unspecified); NO
8) C[C@H]1[C@@H](OC(=O)CCC(=O)O)OC2OC3(C)CC[C@H]4[C@H](C)CC[C@@H]1[C@@]24OO3 (stereo partly specified); YES
9) Cc1onc(-c2c(F)cccc2Cl)c1C(=O)NC1C(=O)N2C1SC(C)(C)C2C(=O)O (stereo unspecified); NO
10) CCC1OC(=O)C[C@H](O)C(C)[C@@H](O[C@@H]2OC(C)C(O)C(N(C)C)C2O)C(CCN2CC(C)CC(C)C2)CC(C)C(=O)/C=C/C(C)=C\[C@@H]1COC1OC(C)C(O)C(OC)C1OC (stereo partly specified); YES
11) CC[C@@]1(O)C[C@H](O[C@H]2C[C@@H](N(C)C)[C@@H](O[C@H]3C[C@@H](O)[C@@H](O[C@H]4CCC(=O)[C@@H](C)O4)[C@@H](C)O3)[C@@H](C)O2)c2c(cc3c(c2O)C(=O)c2c(O)cccc2C3=O)[C@H]1C(=O)OC; YES
12) O=C(O)c1ccc(N[C@@H]2OC[C@@H](O)[C@@H](O)[C@@H]2O)cc1; NO
13) CN(C)CC[C@@](O)(c1ccccc1)c1ccccc1Cl; YES
14) CCCC[C@H]1C(=O)N(c2ccccc2)N(c2ccc(O)cc2)C1=O; NO
15) C/C(=C(/CCOC(=O)C(C)C)SS/C(CCOC(=O)C(C)C)=C(\C)N(C=O)Cc1cnc(C)nc1N)N(C=O)Cc1cnc(C)nc1N; NO
16) NC(=O)c1ncn(C2OC(CO)C(O)C2O)c1N (stereo unspecified); NO
17) C=C[C@@]1(C)C[C@H](OC(=O)CSC(C)(C)CNC(=O)[C@@H](N)C(C)C)[C@@]2(C)C(C)CC[C@@]3(CCC(=O)[C@@H]32)[C@H](C)[C@H]1O (stereo partly specified); YES
18) Cc1cc(O)c2c(c1)OC1(C)CCC3C(C)(C)CCCC34COC2C14 (stereo unspecified); YES
19) CC(c1ncncc1F)[C@](O)(Cn1cncn1)c1ccc(F)cc1F (stereo partly specified); NO
20) CC(C)CCCC(C)C1CC(=O)C2=C3CCC4CC(O)CCC4(C)C3CCC21C (stereo unspecified); YES
21) CC1(Cn2ccnn2)[C@H](C(=O)O)N2C(=O)C[C@H]2S1(=O)=O (stereo partly specified); NO
22) CCCCCCCCCCCC(=O)OCC(O)C1OCC(O)C1O (stereo unspecified); NO
23) CC1=C(/C=C/C(C)=C\C=C\C(C)=C\C=C\C=C(C)\C=C\C=C(C)\C=C\C2=C(C)C[C@@H](O)CC2(C)C)C(C)(C)C[C@H](O)C1; YES
24) CCCCC(=O)OCC(=O)[C@]1(O)Cc2c(O)c3c(c(O)c2[C@H](OC2CC(NC(=O)C(F)(F)F)C(O)C(C)O2)C1)C(=O)c1c(OC)cccc1C3=O (stereo partly specified); YES
25) CNC1=CN(O)C(c2ccccc2)=c2cc(Cl)ccc2=N1; YES
26) Cc1cncc(C(=O)O)[n+]1[O-]; NO
27) CCCCCCCCCCCCCCCC(=O)OC[C@H](O)[C@H]1OC[C@@H](O)[C@@H]1O; NO
28) C=NC(C(=O)NC1C(=O)N2C1SC(C)(C)C2C(=O)O)c1ccccc1 (stereo unspecified); NO
29) OCC1O[C@H](O[C@H]2C(O)C(O)C(O)O[C@@H]2CO)C(O)C(O)C1O (stereo partly specified); NO
30) C[C@@H]1CC2C3CCC4=CC(=O)C=C[C@]4(C)[C@@]3(F)[C@@H](O)C[C@]2(C)[C@@]1(O)C(=O)COC(=O)c1cccc(S(=O)(=O)O)c1 (stereo partly specified); NO
31) C[S+](C)CC[C@H](N)C(=O)O; NO
32) CCC1OC(=O)C[C@@H](O)[C@H](C)[C@@H](OC2OC(C)CC(N(C)C)C2O)[C@@H](CC=O)C[C@@H](C)C(=O)/C=C/[C@]2(C)OC2C1C (stereo partly specified); YES
33) CO/N=C(/C(=O)N[C@@H]1C(=O)N2C(C(=O)O)=C(CSc3nnnn3C)CS[C@H]12)c1csc(N)n1; NO
34) C[C@H](CN1c2ccccc2Sc2cccnc21)N(C)C; YES
35) O=[N+]([O-])O[C@H]1CO[C@H]2[C@@H]1OC[C@H]2O; NO
36) CO/N=C(/C(=O)N[C@@H]1C(=O)N2C(C(=O)O)=C(CSC(=O)c3ccco3)CSC12)c1csc(N)n1 (stereo partly specified); NO
